Where do these numbers come from? They come from PubChem BioAssay (NCI).

Test system: HOP-92 NSCLC
TEST SUMMARY: NCI-60 one-dose screen, 48 h (100 = growth as untreated, 0 = no growth, -100 = all killed)
PROTOCOL CONDITIONS: 10 µM unless noted
The panel holds about 83,000 compounds, 20% with a hit somewhere; the sample as a whole holds those more often. Calls of active or inactive are those of the source. Rule for the calls: active = growth percent below 10; inactive = the rest.
Exercise: state measured growth for each of the compounds provided.

Observe how each entry below is paired with its result.
[
  {
    "COMPOUND STRING": "C=C(C)[C@@H]1CC[C@]2(C(=O)N3CCN(C)CC3)CC[C@]3(C)[C@H](CC[C@@H]4[C@@](C)(CCC(=O)O)[C@H](C(=C)C)CC[C@]43C)[C@@H]12",
    "MEASUREMENT TARGET": "HOP-92 NSCLC",
    "ASSAY READOUT": "growth",
    "TEST RESULT": "78.6% (inactive)"
  },
  {
    "COMPOUND STRING": "C=C1C(=O)O[C@H]2[C@H]1CC/C(COC(=O)/C=C\\C(=O)NCc1ccc(Cn3c(=O)sn(CCCCl)c3=O)cc1)=C\\CC[C@@]1(C)O[C@@H]21",
    "MEASUREMENT TARGET": "HOP-92 NSCLC",
    "ASSAY READOUT": "growth",
    "TEST RESULT": "81.7% (inactive)"
  }
]

Turning now to a further record.
The reported HOP-92 NSCLC growth of Cn1cc(-c2csc(-c3cn(CCCN4CCOCC4)c4ccc(F)cc34)n2)c2cccnc21 is 40.8% (inactive)

----------
Test system: SN12C renal
TEST SUMMARY: NCI-60 one-dose screen, 48 h
PROTOCOL CONDITIONS: 10 µM unless noted
This is part of a sample that, as a whole, favours compounds with a hit. Of some 83,000 tested, about 20% had one in any assay. The source made the active and inactive calls. Rule for the calls: active = growth percent below 10; inactive = the rest.
Assign a class; possible classes are yes for active, no for inactive

[
  {
    "MOLECULE": "O=C(N/N=C/c1ccc(Cl)cc1)c1ccc(NC(=O)c2ccccn2)cc1",
    "CLASS ASSIGNMENT": "no"
  },
  {
    "MOLECULE": "Nc1c(C(=O)Nc2cccc3ncccc23)sc2nc3c(cc12)CN(Cc1ccccc1)CC3",
    "CLASS ASSIGNMENT": "no"
  },
  {
    "MOLECULE": "CC1(C)N=C(N)N=C(N)N1c1cc(Cl)ccc1Cl",
    "CLASS ASSIGNMENT": "no"
  },
  {
    "MOLECULE": "C=CN(C(=O)N1CCN(c2cc3c(cc2F)c(=O)c(C(=O)O)cn3C2CC2)CC1)c1nc(-c2ccccc2)cs1",
    "CLASS ASSIGNMENT": "no"
  },
  {
    "MOLECULE": "Cc1ccc2c(c1)=C/C(=C\\c1cc(-c3ccccc3)[nH]c1O)C(=O)N=2",
    "CLASS ASSIGNMENT": "no"
  },
  {
    "MOLECULE": "CCOC(=O)c1[nH]cc2c1CCc1sc(Nc3ccccn3)nc1-2",
    "CLASS ASSIGNMENT": "no"
  }
]

## Input In this assay, the call recorded for COc1ccc(C(=O)C/C(=C\c2ccc(O)c(OC)c2)C(=O)NN)cc1 was what?
## Output no

## Input In this assay, the call recorded for COC(=O)c1c(C)nc(C)c2c1C(=O)C=C(NCc1ccccc1)C2=O was what?
## Output no

## Input In this assay, the call recorded for O=C1CCCC1[n+]1ccccc1 (stereo not drawn) was what?
## Output no

## Input In this assay, the call recorded for O=C(/C=C/c1ccccc1)c1cccc2ccccc12 was what?
## Output no

## Input In this assay, the call recorded for CCOC(=O)c1nnn(-c2no[n+]([O-])c2-c2ccc(OC)cc2)c1COc1cccc2cccnc12 was what?
## Output yes

## Input In this assay, the call recorded for O=c1cc(-c2ccccc2)nc(SCc2nc3cc(Cl)c(Cl)cc3[nH]2)[nH]1 was what?
## Output no

## Input In this assay, the call recorded for CN1CCN(Cc2ccc(NC(=O)c3cncc(C#Cc4cnc(N)cc4C#N)c3)cc2C(F)(F)F)CC1 was what?
## Output no
